Taken from the Human Domainome abundance scans (Beltran et al. 2025).

B1: Cyclin-F, residues 28 to 80; numbered along this chain, P41002 (parent)
chain: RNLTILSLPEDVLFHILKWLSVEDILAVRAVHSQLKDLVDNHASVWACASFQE

- Variants of: B1
- ASSAY REMARKS: abundance fitness (aPCA) (normalised: wild type 0, dead -1); higher = more abundant; growth selection in yeast, the domain comes from the species named
- CONDITION INFO: Homo sapiens
Label Y when abundance fitness is at or above -0.4; anything below gets N.

MUTATION NAME	LABEL VALUE
L35A	N
R29I	N
L6E	N
L3H	Y
D11M	N
W46P	Y
V45H	Y
L38A	Y

# next variant below
Would you say Q52Y shows abundance fitness at minimum -0.4?
Y
